FYI, the data here is from patent US20230310428A1.

The molecules listed here are annotated with their pIC50.
# test-target: various mutants of kinase EGFR (BaF3 cell lines stably transfected with kinase) (Homo sapiens, UniProt P00533, T790M/C797S, form not given)
# Construct: other: BaF3 cells stably transfected with EGFR Δ19Del/T790M/C797S; MTS, 48; other: BaF3 cell line stably transfected with EGFR Δ19Del/T790M/C7
# Sequence (P00533 with tags, fused parts or gaps DEL746-750/T790M/C797S, form open): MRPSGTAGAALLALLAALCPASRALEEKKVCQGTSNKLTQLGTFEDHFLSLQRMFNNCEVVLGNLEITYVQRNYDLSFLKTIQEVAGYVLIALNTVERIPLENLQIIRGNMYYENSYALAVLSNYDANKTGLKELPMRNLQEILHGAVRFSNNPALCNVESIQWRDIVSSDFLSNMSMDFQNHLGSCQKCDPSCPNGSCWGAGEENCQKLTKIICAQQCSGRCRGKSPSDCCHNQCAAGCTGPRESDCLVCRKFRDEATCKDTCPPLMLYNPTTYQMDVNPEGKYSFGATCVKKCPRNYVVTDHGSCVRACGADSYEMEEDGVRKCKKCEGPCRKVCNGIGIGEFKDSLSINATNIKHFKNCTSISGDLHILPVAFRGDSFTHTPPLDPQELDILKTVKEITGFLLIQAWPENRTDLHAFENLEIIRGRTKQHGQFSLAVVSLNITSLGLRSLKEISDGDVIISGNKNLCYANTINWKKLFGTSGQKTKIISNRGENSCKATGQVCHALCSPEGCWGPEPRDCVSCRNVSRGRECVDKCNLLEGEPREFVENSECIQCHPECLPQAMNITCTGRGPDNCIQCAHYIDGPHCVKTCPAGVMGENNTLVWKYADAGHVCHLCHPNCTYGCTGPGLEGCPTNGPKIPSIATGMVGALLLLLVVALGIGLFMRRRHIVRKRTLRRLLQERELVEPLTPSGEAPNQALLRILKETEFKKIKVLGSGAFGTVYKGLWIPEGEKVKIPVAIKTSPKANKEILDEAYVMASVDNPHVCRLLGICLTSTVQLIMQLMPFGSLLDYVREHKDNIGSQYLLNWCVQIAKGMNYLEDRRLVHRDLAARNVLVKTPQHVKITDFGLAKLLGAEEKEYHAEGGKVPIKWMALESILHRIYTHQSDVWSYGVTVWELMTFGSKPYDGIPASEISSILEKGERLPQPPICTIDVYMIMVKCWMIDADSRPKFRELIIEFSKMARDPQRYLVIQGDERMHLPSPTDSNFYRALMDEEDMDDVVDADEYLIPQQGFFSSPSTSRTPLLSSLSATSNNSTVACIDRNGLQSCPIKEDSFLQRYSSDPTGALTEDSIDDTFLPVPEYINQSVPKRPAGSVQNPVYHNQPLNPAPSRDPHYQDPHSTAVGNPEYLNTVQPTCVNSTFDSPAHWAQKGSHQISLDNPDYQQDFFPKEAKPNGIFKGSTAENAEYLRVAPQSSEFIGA
# assay-method-text: Growth inhibitory activity of compounds on BaF3 cell lines stably transfected with kinase (MTS, 48 h)
# Type: cell-based
# assay-conditions: BaF3 cells stably transfected with EGFR Δ19Del/T790M/C797S, read-out: IC50, growth inhibition, Δ19Del/T790M/C797S
pIC50: −log10 of the molar value.

Example results:
# molecule, pIC50
data = [
    ("COc1nc(N2CCC(N3CCN(C)CC3)CC2)ccc1Nc1ncc(Br)c(Nc2ccc3nccnc3c2N(C)S(C)(=O)=O)n1", "≥ 7.30"),
    ("C=Cc1cc(Nc2ncc(Br)c(Nc3ccc4nccnc4c3N(C)S(C)(=O)=O)n2)c(OC(F)(F)F)cc1N1CCC(N2CCN(C)CC2)CC1", "≥ 7.30"),
    ("CCc1cc(Nc2ncc(Cl)c(Nc3ccc4nccnc4c3N(C)S(C)(=O)=O)n2)ccc1N1CCC(N2CCN(C)CC2)CC1", "≥ 7.30"),
    ("CN(c1c(Nc2nc(Nc3ccc(S(=O)(=O)NC4CC4)cc3)ncc2Br)ccc2nccnc12)S(C)(=O)=O", "5.60 to 6.30"),
    ("CCS(=O)(=O)N(C)c1c(Nc2nc(Nc3cc(CC4CC4)c(N4CCC(N5CCN(C)CC5)CC4)cc3OC)ncc2Cl)ccc2nccnc12", "≥ 7.30"),
    ("COc1cc(N2CCC(N(C)C)CC2)c(C)cc1Nc1ncc(F)c(Nc2ccc3nccnc3c2N(C)S(C)(=O)=O)n1", "≥ 7.30"),
    ("CCc1cc(Nc2ncc(Br)c(Nc3ccc4nccnc4c3N(C)S(=O)(=O)CC)n2)c(OC)cc1N1CCC(N2CCN(C)CC2)CC1", "≥ 7.30"),
    ("COc1cc(N2CCC(N(C)C)C2)ccc1Nc1ncc(Br)c(Nc2ccc3nccnc3c2N(C)S(C)(=O)=O)n1 (stereo not shown)", "≥ 7.30"),
    ("COc1cc(N2CCC(N3CCN(C)CC3)CC2)c(C(C)C)cc1Nc1ncc(Cl)c(Nc2ccc3nccnc3c2N(C)S(C)(=O)=O)n1", "6.30 to 7.30"),
    ("CCc1cc(Nc2ncc(C3CC3)c(Nc3ccc4nccnc4c3N(C)S(C)(=O)=O)n2)c(OC)cc1N1CCC(N(C)C)CC1", "≥ 7.30"),
]

Task item: Name the recorded pIC50 for COc1cc(N2CCC(N3CCN(C)CC3)CC2)c(CC2CC2)cc1Nc1ncc(Br)c(Nc2ccc3nccnc3c2N(C)S(=O)(=O)C(F)(F)F)n1 .
Reply: 6.30 to 7.30

Task item: Name the recorded pIC50 for COc1cc(N2CCC(N3CCN(C)CC3)CC2)c(Cc2ccccc2)cc1Nc1ncc(C(F)(F)F)c(Nc2ccc3nccnc3c2N(C)S(C)(=O)=O)n1 .
Reply: 5.60 to 6.30

Task item: Name the recorded pIC50 for COc1cc(N2CCC(N3CCN(C)CC3)CC2)ccc1Nc1ncc(Br)c(Nc2ccc3nccnc3c2N(C2CC2)S(C)(=O)=O)n1 .
Reply: ≥ 7.30

====

# test-target: various mutants of kinase EGFR (BaF3 cell lines stably transfected with kinase) (Homo sapiens, UniProt P00533)
# Construct: other: BaF3 cells stably transfected with EGFR Δ19Del; MTS, 48 h; other: BaF3 cell line stably transfected with EGFR Δ19Del
# Sequence (P00533 with tags, fused parts or gaps DEL746-750): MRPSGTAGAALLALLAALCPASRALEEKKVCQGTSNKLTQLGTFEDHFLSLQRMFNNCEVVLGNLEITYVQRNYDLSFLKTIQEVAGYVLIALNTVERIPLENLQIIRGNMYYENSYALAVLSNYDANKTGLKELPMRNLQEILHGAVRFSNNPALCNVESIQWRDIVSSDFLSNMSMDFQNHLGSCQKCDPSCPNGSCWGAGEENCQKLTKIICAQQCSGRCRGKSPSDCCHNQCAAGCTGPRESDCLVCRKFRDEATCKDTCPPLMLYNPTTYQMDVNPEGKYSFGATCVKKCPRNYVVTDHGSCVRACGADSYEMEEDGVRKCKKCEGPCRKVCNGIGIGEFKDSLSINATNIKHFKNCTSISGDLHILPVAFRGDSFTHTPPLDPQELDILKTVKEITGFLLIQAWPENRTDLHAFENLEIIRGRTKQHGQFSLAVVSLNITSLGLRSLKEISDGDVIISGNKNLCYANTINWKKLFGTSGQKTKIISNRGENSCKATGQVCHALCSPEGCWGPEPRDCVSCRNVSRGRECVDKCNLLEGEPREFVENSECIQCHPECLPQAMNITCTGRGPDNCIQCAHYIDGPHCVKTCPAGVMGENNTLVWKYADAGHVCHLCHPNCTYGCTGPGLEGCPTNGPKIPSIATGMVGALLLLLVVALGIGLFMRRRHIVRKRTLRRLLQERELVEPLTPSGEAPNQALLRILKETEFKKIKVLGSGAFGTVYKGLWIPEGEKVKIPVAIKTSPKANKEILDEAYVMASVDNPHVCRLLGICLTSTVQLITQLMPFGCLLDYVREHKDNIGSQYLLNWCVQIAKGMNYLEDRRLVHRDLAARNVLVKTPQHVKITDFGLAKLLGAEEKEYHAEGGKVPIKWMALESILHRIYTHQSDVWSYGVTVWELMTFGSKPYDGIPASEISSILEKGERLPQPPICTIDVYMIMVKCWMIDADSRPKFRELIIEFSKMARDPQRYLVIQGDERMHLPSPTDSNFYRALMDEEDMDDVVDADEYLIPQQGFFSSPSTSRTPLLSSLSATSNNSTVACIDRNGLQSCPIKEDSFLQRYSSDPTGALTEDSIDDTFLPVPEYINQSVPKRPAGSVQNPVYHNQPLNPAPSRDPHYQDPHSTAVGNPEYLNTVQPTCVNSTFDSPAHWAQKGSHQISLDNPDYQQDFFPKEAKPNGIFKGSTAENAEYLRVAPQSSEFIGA
# assay-method-text: Growth inhibitory activity of compounds on BaF3 cell lines stably transfected with kinase (MTS, 48 h)
# Type: cell-based
# assay-conditions: BaF3 cells stably transfected with EGFR Δ19Del, read-out: IC50, growth inhibition, Δ19Del
pIC50: −log10 of the molar value.
The compounds listed here are annotated with their pIC50.

Example results:
# compound, result
rows = [
    ("COc1cc(N2CCC(N3CCN(C)CC3)CC2)c(CC2CC2)cc1Nc1ncc(Br)c(Nc2ccc3nccnc3c2N(C)S(=O)(=O)C2CC2)n1 [Compound I-220]", "6.30 to 7.30"),
    ("CN1CCc2cc(OC(F)(F)F)c(Nc3ncc(Br)c(Nc4ccc5nccnc5c4N(C)S(C)(=O)=O)n3)cc2C1 [Compound I-90]", "6.30 to 7.30"),
    ("COc1cc(N2CCC(N3CCN(C)CC3)CC2)c(C)cc1Nc1ncc(C#N)c(Nc2ccc3nccnc3c2N(C)S(C)(=O)=O)n1 [Compound I-28]", "6.30 to 7.30"),
    ("COc1cc(N2CCC(N3CCN(C)CC3)CC2)c(C)cc1Nc1ncc(F)c(Nc2ccc3nccnc3c2N(C)S(=O)(=O)C2CC2)n1 [Compound I-248]", "≥ 7.30"),
    ("C=Cc1cc(Nc2ncc(C3CC3)c(Nc3ccc4nccnc4c3N(C)S(C)(=O)=O)n2)c(OC(F)(F)F)cc1N1CCC(N2CCN(C)CC2)CC1 [Compound I-271]", "6.30 to 7.30"),
]

Task item: Name the recorded pIC50 for COc1nc(N2CCC(N3CCN(C)CC3)CC2)ccc1Nc1ncc(Br)c(Nc2ccc3nccnc3c2N(C)S(=O)(=O)C2CC2)n1 [Compound I-216] .
Reply: 5.60 to 6.30

Task item: Name the recorded pIC50 for CCc1cc(Nc2ncc(Cl)c(Nc3ccc4nccnc4c3N(C3CC3)S(C)(=O)=O)n2)c(OC)cc1N1CCC(N(C)C)C1 (stereo not drawn) [Compound I-163] .
Reply: ≥ 7.30

Task item: Name the recorded pIC50 for CN1CCN(C2CCN(c3ccc(Nc4ncc(Br)c(Nc5ccc6nccnc6c5N(C)S(C)(=O)=O)n4)c(OC(F)(F)F)c3)CC2)CC1 [Compound I-7] .
Reply: 6.30 to 7.30

Task item: Name the recorded pIC50 for COc1cc(N2CCC(N3CCN(C)CC3)CC2)c(C)cc1Nc1ncc(Cl)c(Nc2ccc3nccnc3c2N(C)S(C)(=O)=O)n1 [Compound I-19] .
Reply: ≥ 7.30

Task item: Name the recorded pIC50 for CCc1cc(Nc2ncc(Br)c(Nc3ccc4nccnc4c3N(C)S(C)(=O)=O)n2)ccc1N1CCC(N2CCN(C)CC2)CC1 [Compound I-286] .
Reply: ≥ 7.30

Task item: Name the recorded pIC50 for CCc1cc(Nc2ncc(Cl)c(Nc3ccc4nccnc4c3N(C)S(=O)(=O)CC)n2)c(OC)cc1N1CCC(N(C)C)C1 (stereo not drawn) [Compound I-118] .
Reply: ≥ 7.30

Task item: Name the recorded pIC50 for COc1cc(N2CCC(N(C)C)C2)c(C)cc1Nc1ncc(Br)c(Nc2ccc3nccnc3c2N(C)S(=O)(=O)C2CC2)n1 (stereo not drawn) [Compound I-222] .
Reply: 6.30 to 7.30

====

# test-target: various mutants of kinase EGFR (BaF3 cell lines stably transfected with kinase) (Homo sapiens, UniProt P00533, T790M, form not given)
# Construct: other: BaF3 cells stably transfected with EGFR Δ19Del/T790M; MTS, 48 h; other: BaF3 cell line stably transfected with EGFR Δ19Del/T790M; MTS, 48
# Sequence (P00533 with tags, fused parts or gaps DEL746-750/T790M, form open): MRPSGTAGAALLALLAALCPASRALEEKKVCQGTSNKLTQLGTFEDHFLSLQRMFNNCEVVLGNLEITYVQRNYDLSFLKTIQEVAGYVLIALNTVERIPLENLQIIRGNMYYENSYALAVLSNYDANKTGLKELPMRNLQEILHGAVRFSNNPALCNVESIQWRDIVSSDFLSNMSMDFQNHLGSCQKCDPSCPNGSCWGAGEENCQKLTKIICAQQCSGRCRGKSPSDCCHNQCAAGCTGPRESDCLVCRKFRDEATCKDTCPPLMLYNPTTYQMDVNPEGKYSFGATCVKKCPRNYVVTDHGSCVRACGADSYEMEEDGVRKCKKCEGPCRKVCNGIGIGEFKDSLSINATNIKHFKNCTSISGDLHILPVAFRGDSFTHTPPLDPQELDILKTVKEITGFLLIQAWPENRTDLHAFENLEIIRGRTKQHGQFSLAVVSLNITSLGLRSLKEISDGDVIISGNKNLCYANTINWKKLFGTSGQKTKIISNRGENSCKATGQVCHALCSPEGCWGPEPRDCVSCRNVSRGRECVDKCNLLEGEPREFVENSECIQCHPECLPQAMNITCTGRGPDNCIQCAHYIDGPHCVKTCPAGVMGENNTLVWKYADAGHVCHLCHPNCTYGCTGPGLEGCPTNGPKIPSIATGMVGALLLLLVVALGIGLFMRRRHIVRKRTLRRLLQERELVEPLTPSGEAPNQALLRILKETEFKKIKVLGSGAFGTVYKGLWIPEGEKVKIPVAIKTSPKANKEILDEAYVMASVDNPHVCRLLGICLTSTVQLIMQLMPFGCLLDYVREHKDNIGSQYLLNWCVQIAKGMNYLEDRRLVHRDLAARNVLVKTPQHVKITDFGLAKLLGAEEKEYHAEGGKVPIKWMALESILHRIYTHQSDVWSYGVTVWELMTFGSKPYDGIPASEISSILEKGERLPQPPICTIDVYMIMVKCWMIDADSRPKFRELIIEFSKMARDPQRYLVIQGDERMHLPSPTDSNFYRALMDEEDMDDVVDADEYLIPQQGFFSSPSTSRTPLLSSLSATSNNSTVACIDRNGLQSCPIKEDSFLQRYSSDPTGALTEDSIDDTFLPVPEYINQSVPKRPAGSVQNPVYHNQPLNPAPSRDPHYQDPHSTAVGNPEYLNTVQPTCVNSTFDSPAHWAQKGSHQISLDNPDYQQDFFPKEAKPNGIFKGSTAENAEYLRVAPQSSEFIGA
# assay-method-text: Growth inhibitory activity of compounds on BaF3 cell lines stably transfected with kinase (MTS, 48 h)
# Format: cell-based
# assay-conditions: BaF3 cells stably transfected with EGFR Δ19Del/T790M, read-out: IC50, growth inhibition, Δ19Del/T790M
readout-label: IC50

Example results:
# compound, readout-label, result
rows = [
    ("CCc1cc(Nc2ncc(Cl)c(Nc3ccc4nccnc4c3N(C)S(=O)(=O)CC)n2)c(OC(F)(F)F)cc1N1CCC(N2CCN(C)CC2)CC1 [Compound I-116]", "IC50", "50 to 500 nM"),
    ("CCc1cc(Nc2ncc(Cl)c(Nc3ccc4nccnc4c3N(C)S(C)(=O)=O)n2)c(OC)nc1N1CCC(N2CCN(C)CC2)CC1 [Compound I-21]", "IC50", "≤ 50 nM"),
    ("CCc1cc(Nc2ncc(Cl)c(Nc3ccc4nccnc4c3N(C)S(=O)(=O)CC)n2)c(OC)cc1N1CCC(N(C)C)C1 (stereo not shown) [Compound I-118]", "IC50", "≤ 50 nM"),
    ("CCc1cc(Nc2ncc(F)c(Nc3ccc4nccnc4c3N(C)S(C)(=O)=O)n2)c(OC(F)(F)F)cc1N1CCC(N2CCN(C)CC2)CC1 [Compound I-179]", "IC50", "50 to 500 nM"),
    ("CN1CCN(C2CCN(c3ccc(Nc4ncc(C(F)(F)F)c(Nc5ccc6nccnc6c5N(C)S(C)(=O)=O)n4)c(OC(F)(F)F)c3)CC2)CC1 [Compound I-200]", "IC50", "50 to 500 nM"),
]

Task item: Name the recorded IC50 for COc1cc(N2CCC(N3CCN(C)CC3)CC2)ccc1Nc1ncc(Br)c(Nc2ccc3nccnc3c2N(C)S(=O)(=O)C2CC2)n1 [Compound I-215] .
Reply: ≤ 50 nM

Task item: Name the recorded IC50 for CCc1cc(Nc2ncc(Br)c(Nc3ccc4nccnc4c3N(C)S(=O)(=O)CC)n2)c(OC(F)(F)F)cc1N1CCC(N2CCN(C)CC2)CC1 [Compound I-101] .
Reply: ≤ 50 nM

Task item: Name the recorded IC50 for C=Cc1cc(Nc2ncc(C(F)(F)F)c(Nc3ccc4nccnc4c3N(C)S(C)(=O)=O)n2)c(OC(F)(F)F)cc1N1CCC(N2CCN(C)CC2)CC1 [Compound I-202] .
Reply: ≤ 50 nM

Task item: Name the recorded IC50 for COc1cc(N2CCC(N(C)C)C2)ccc1Nc1ncc(Br)c(Nc2ccc3nccnc3c2N(C)S(C)(=O)=O)n1 (stereo not shown) [Compound I-43] .
Reply: ≤ 50 nM

Task item: Name the recorded IC50 for COc1cc(N2CCC(O)CC2)ccc1Nc1ncc(Br)c(Nc2ccc3nccnc3c2N(C)S(C)(=O)=O)n1 [Compound I-44] .
Reply: ≤ 50 nM

Task item: Name the recorded IC50 for CCc1cc(Nc2ncc(Cl)c(Nc3ccc4nccnc4c3N(CC)S(C)(=O)=O)n2)c(OC)nc1N1CCC(N2CCN(C)CC2)CC1 [Compound I-227] .
Reply: ≤ 50 nM

Task item: Name the recorded IC50 for COc1cc(N2CCC(N3CCN(C)CC3)CC2)c(CC2CC2)cc1Nc1ncc(F)c(Nc2ccc3nccnc3c2N(C)S(C)(=O)=O)n1 [Compound I-181] .
Reply: 50 to 500 nM

Task item: Name the recorded IC50 for COc1cc(N2CCC(N3CCN(C)CC3)CC2)c(C)cc1Nc1ncc(Cl)c(Nc2ccc3nccnc3c2N(C)S(=O)(=O)C(F)(F)F)n1 [Compound I-129] .
Reply: 50 to 500 nM
